Molecular target: SMARCA2 (Homo sapiens)
Sequence (P51531 whole entry): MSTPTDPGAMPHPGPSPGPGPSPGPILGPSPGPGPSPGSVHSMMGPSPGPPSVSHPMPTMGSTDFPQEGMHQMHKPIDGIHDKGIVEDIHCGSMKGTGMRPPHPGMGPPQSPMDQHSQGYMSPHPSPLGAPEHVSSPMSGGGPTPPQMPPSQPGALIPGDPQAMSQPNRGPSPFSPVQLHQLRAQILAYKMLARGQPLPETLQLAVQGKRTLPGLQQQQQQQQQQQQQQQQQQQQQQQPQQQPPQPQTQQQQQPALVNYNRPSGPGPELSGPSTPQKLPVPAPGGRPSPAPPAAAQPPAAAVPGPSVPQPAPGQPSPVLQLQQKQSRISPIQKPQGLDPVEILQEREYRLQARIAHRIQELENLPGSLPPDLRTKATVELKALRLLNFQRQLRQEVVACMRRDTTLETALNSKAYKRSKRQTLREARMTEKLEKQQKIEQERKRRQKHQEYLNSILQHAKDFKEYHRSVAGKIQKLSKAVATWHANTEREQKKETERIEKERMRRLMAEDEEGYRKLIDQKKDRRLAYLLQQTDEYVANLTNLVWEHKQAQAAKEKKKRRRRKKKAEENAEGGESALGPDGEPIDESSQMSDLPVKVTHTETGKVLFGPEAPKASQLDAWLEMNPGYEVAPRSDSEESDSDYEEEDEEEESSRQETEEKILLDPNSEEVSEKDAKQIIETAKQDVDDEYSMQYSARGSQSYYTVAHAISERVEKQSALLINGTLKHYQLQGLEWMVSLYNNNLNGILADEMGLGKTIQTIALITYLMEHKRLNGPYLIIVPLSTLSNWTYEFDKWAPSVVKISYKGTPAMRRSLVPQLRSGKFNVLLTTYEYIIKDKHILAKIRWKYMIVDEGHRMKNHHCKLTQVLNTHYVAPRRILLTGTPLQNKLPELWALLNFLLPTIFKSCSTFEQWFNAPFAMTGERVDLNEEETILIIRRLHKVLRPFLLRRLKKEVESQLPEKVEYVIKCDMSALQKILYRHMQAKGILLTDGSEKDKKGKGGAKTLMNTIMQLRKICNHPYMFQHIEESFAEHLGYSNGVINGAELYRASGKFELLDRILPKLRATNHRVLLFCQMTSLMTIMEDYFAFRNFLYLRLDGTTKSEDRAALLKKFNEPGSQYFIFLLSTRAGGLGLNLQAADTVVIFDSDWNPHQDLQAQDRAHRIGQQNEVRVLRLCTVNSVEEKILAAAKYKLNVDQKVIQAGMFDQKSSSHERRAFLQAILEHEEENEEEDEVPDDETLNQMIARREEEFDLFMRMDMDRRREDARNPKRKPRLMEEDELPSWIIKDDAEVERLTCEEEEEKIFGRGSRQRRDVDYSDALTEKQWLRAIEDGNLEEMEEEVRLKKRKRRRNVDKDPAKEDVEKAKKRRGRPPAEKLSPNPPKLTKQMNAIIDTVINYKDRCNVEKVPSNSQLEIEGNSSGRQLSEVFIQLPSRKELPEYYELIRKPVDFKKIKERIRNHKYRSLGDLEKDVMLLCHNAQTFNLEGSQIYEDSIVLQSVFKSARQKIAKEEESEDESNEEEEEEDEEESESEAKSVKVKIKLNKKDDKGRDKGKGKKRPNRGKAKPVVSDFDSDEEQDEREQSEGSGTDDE
Assay: MSD SMARCA2 degradation in A549 cell line
Type: cell-based
Conditions: A549 cells, 24 h, read-out: SMARCA2 MSD A549 degradation 24 h: Average external-Abs DC50
Below, each of the compounds is paired with its reported DC50 value.

C#Cc1ccc(CNC(=O)[C@@H]2C[C@@H](O)CN2C(=O)[C@@H](NC(=O)N2CC3(CC(N4CCC(c5cnc(N6CCc7[nH]c8nnc(-c9ccccc9O)cc8c7[C@H]6C)nc5)CC4)C3)C2)C(C)(C)C)c(OCCO)c1; < 0.01 µM

[ask] In one line, give reported DC50 of the entry C#Cc1ccc(CNC(=O)[C@@H]2C[C@@H](O)CN2C(=O)[C@@H](NC(=O)[C@H]2CCC3(CC2)C[C@H](N2CCC(N4CCC(N5CCN6c7cc(-c8ccccc8O)nnc7NC[C@H]6C5)CC4)CC2)C3)C(C)(C)C)c(Cl)c1 (single isomer, unassigned) [I-221] .
[reply] > 0.1 µM

[ask] Indicate the recorded DC50 value for this compound: C#Cc1ccc(CNC(=O)[C@@H]2C[C@@H](O)CN2C(=O)[C@@H](NC(=O)N2CC3(CC(N4CCC(N5CCC(N6CCc7[nH]c8nnc(-c9ccccc9O)cc8c7[C@@H]6C)CC5)CC4)C3)C2)C(C)(C)C)c(F)c1
[reply] > 0.1 µM

[ask] Return value of DC50 for input Cc1ncsc1-c1ccc(CNC(=O)[C@@H]2C[C@@H](O)CN2C(=O)C(c2cc(N3CC4(CCC(N5CCC(c6cnc(N7CCc8[nH]c9nnc(-c%10ccccc%10O)cc9c8[C@H]7C)nc6)CC5)CC4)C3)no2)C(C)C)cc1 (single isomer, unassigned) , no commentary.
[reply] < 0.01 µM

Reference source for all entries: patent US20250170248A1
